We begin with a simple list: items and their reported inhibition at 1 µM.
Biological target: native Aβ aggregates in human AD brain tissue sections (Homo sapiens, UniProt P05067)
Construct: native Aβ aggregates in human AD brain tissue samples; from tissue; host or cells: human AD brain tissue sections
Sequence (P05067 672-713 limits assumed): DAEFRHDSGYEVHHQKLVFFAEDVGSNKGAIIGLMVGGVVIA
Assay: Aβ in vitro displacement assay (selectivity counterscreen, [3H]Example 3 autoradiography)
Format: binding
Conditions: 1 μM compound; 3 nM [3H]Example 3; human AD brain sections; read-out: sel. counterscreen PCT_INHIB AD @ 1 μM (% displacement of [3H]Example 3)
Quick note: give the figure in %, leave out the unit.

COc1ccc(C(=O)Nc2ccc(N3CCN(c4ccc(C#N)c(F)c4)CC3)cc2)cc1
94
COc1ccc(C(=O)Nc2ccc(N3CCN(c4cccc(F)c4)CC3)cc2)cc1
100
COc1ccc(C(=O)Nc2ccc(N3CCN(c4ccccc4F)CC3)cc2)cc1
100
CN1CCN(c2ccc(C(=O)Nc3ccc(N4CCN(c5ccccn5)CC4)cn3)cc2)CC1
92
N#Cc1ccc(N2CCN(c3ccc(NC(=O)c4ccc(OCC(O)CF)cc4)cc3)CC2)cc1 (racemic)
90

(Q) Data request, read-out inhibition at 1 µM, for "COc1ccc(C(=O)Nc2ccc(N3CCN(c4ccccc4OC)CC3)cc2)cc1"
(A) 86

(Q) Consider the compound shown here: "O=C(Nc1ccc(N2CCN(c3ccccn3)CC2)nn1)c1ccc(N2CCOCC2)cc1" What is its recorded inhibition at 1 µM?
(A) 93

(Q) Consider the compound "Cc1ccc(C(=O)Nc2cnc(N3CCN(c4ccccn4)CC3)nc2)cc1" and give its measured inhibition at 1 µM.
(A) 95

(Q) inhibition at 1 µM lookup needed for "COc1ccc(C(=O)Nc2ccc(N3CCN(c4ccc(C#N)cc4)CC3)cc2)cc1C" , thanks.
(A) 88

(Q) Recorded inhibition at 1 µM for "COc1ccc(C(=O)Nc2ccc(N3CCN(c4cccc(OC)n4)CC3)cc2)cc1" , please?
(A) 90

The measured values listed here are drawn from patent US11541132B2.
